biological target: COX-1 (Homo sapiens, UniProt P23219); assay: Assay of COX-1 activity from U937 cell microsomes (PGE2); assay type: biochemical; set-up: Assay of COX-1 Activity from U937 Cell Microsomes; endogenous in cells; host or cells: U937 cells, 100,000 x g microsomal pellet; settings: U-937 cell microsomes, 15 min preincubation; read-out: COX-1 (IC50 mM) U-937
Sequence (P23219 24-599): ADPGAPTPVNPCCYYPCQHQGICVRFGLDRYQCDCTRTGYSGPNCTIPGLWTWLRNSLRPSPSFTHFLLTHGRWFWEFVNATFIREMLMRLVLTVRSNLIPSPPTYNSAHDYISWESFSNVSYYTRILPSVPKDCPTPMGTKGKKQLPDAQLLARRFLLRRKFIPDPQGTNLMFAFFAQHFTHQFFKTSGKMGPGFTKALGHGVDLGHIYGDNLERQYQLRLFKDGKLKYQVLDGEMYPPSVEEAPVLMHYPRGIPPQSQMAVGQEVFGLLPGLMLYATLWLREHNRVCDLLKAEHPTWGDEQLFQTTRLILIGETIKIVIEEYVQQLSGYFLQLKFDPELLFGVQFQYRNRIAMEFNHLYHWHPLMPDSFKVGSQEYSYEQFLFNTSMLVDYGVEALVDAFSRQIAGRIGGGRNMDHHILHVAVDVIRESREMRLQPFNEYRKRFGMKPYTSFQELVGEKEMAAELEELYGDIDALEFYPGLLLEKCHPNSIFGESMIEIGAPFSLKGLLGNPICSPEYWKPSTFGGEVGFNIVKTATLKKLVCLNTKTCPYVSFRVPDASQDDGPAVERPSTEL
endpoint.name: IC50

{"molecule": "C[C@]1(O)CCC[C@H]1Oc1ncc(C(F)(F)F)cc1-c1ccc(S(C)(=O)=O)cc1 (single isomer, unassigned) [Example 31]", "endpoint.name": "IC50", "result": "0.037 mM"}
{"molecule": "C[C@@]1(O)CCC[C@H]1Oc1ncc(C(F)(F)F)cc1-c1ccc(S(C)(=O)=O)cc1 (relative stereo)", "endpoint.name": "IC50", "result": "0.001 to 0.003 mM"}
{"molecule": "C[C@H](Oc1ncc(C(F)(F)F)cc1-c1ccc(S(C)(=O)=O)cc1)C(C)(C)O", "endpoint.name": "IC50", "result": "> 0.01 mM"}
{"molecule": "COCCOc1ncc(C(F)(F)F)cc1-c1ccc(S(C)(=O)=O)cc1", "endpoint.name": "IC50", "result": "0.001 to 0.003 mM"}
{"molecule": "C[C@]1(O)CCC[C@H]1Oc1ncc(C(F)(F)F)cc1-c1ccc(S(C)(=O)=O)cc1 (single isomer, unassigned) [Example 32]", "endpoint.name": "IC50", "result": "> 0.01 mM"}
{"molecule": "C[C@H](O)[C@@H](C)Oc1ncc(C(F)(F)F)cc1-c1ccc(S(C)(=O)=O)cc1", "endpoint.name": "IC50", "result": "> 0.01 mM"}
{"molecule": "CC(C)(O)CSc1ncc(C(F)(F)F)cc1-c1ccc(S(C)(=O)=O)cc1", "endpoint.name": "IC50", "result": "0.003 to 0.01 mM"}
{"molecule": "CCC(O)(CC)CSc1ncc(C(F)(F)F)cc1-c1ccc(S(C)(=O)=O)cc1", "endpoint.name": "IC50", "result": "0.003 to 0.01 mM"}
{"molecule": "CCC(O)(CC)COc1ncc(C(F)(F)F)cc1-c1ccc(S(C)(=O)=O)cc1", "endpoint.name": "IC50", "result": "> 0.01 mM"}
{"molecule": "CC(C)(O)CCOc1ncc(C(F)(F)F)cc1-c1ccc(S(C)(=O)=O)cc1", "endpoint.name": "IC50", "result": "0.01 mM"}
{"molecule": "C[C@@H](O)CCOc1ncc(C(F)(F)F)cc1-c1ccc(S(C)(=O)=O)cc1", "endpoint.name": "IC50", "result": "> 0.01 mM"}
{"molecule": "C[C@H](O)CCOc1ncc(C(F)(F)F)cc1-c1ccc(S(C)(=O)=O)cc1", "endpoint.name": "IC50", "result": "0.003 to 0.01 mM"}
{"molecule": "COC(C)(C)COc1ncc(C(F)(F)F)cc1-c1ccc(S(C)(=O)=O)cc1", "endpoint.name": "IC50", "result": "0.003 to 0.01 mM"}
{"molecule": "C[C@]1(O)CCC[C@H]1Oc1ncc(Cl)cc1-c1ccc(S(C)(=O)=O)cc1 (relative stereo)", "endpoint.name": "IC50", "result": "> 0.01 mM"}
{"molecule": "C[C@@H](O)[C@@H](C)Oc1ncc(Cl)cc1-c1ccc(S(C)(=O)=O)cc1", "endpoint.name": "IC50", "result": "> 0.01 mM"}
{"molecule": "C[C@@]1(O)CCCC[C@@H]1Oc1ncc(C(F)(F)F)cc1-c1ccc(S(C)(=O)=O)cc1 (relative stereo)", "endpoint.name": "IC50", "result": "> 0.01 mM"}
{"molecule": "C[C@]1(O)CCC[C@H]1Oc1ncc(C(F)(F)F)cc1-c1ccc(S(N)(=O)=O)cc1 (relative stereo)", "endpoint.name": "IC50", "result": "0.01 mM"}
{"molecule": "C[C@@H](Oc1ncc(C(F)(F)F)cc1-c1ccc(S(C)(=O)=O)cc1)C(C)(C)O", "endpoint.name": "IC50", "result": "> 0.01 mM"}
{"molecule": "CCC(O)(CC)CSc1ncc(Cl)cc1-c1ccc(S(C)(=O)=O)cc1", "endpoint.name": "IC50", "result": "0.001 to 0.003 mM"}
{"molecule": "CS(=O)(=O)c1ccc(-c2cc(C(F)(F)F)cnc2SCC2(O)CCCC2)cc1", "endpoint.name": "IC50", "result": "0.0003 mM"}
{"molecule": "CCC(O)(CC)[C@H](C)Oc1ncc(C(F)(F)F)cc1-c1ccc(S(C)(=O)=O)cc1", "endpoint.name": "IC50", "result": "> 0.01 mM"}
{"molecule": "CC[C@]1(O)CCC[C@H]1Oc1ncc(C(F)(F)F)cc1-c1ccc(S(C)(=O)=O)cc1 (relative stereo)", "endpoint.name": "IC50", "result": "> 0.01 mM"}
{"molecule": "CC(C)(O)/C=C\\c1ncc(Cl)cc1-c1ccc(S(C)(=O)=O)cc1", "endpoint.name": "IC50", "result": "0.001 to 0.003 mM"}
{"molecule": "CC(C)(O)COc1ncc(Cl)cc1-c1ccc(S(C)(=O)=O)cc1", "endpoint.name": "IC50", "result": "> 0.1 mM"}
{"molecule": "CC(C)(O)CSc1ncc(Cl)cc1-c1ccc(S(C)(=O)=O)cc1", "endpoint.name": "IC50", "result": "> 0.01 mM"}
{"molecule": "CS(=O)(=O)c1ccc(-c2cc(C(F)(F)F)cnc2OCC2(O)CC2)cc1", "endpoint.name": "IC50", "result": "0.01 mM"}
{"molecule": "C[C@H](CCO)Oc1ncc(C(F)(F)F)cc1-c1ccc(S(C)(=O)=O)cc1", "endpoint.name": "IC50", "result": "> 0.01 mM"}
{"molecule": "CS(=O)(=O)c1ccc(-c2cc(C(F)(F)F)cnc2O[C@H]2CCC[C@@H]2O)cc1 (relative stereo)", "endpoint.name": "IC50", "result": "0.003 to 0.01 mM"}
{"molecule": "C[C@@H](Oc1ncc(Cl)cc1-c1ccc(S(C)(=O)=O)cc1)C(C)(C)O", "endpoint.name": "IC50", "result": "> 0.01 mM"}
{"molecule": "CCC(C)(O)CSc1ncc(C(F)(F)F)cc1-c1ccc(S(C)(=O)=O)cc1 (single isomer, unassigned; (-)) [Example 46]", "endpoint.name": "IC50", "result": "0.001 to 0.003 mM"}
{"molecule": "CC(CO)Sc1ncc(C(F)(F)F)cc1-c1ccc(S(C)(=O)=O)cc1 (stereo not drawn)", "endpoint.name": "IC50", "result": "0.001 to 0.003 mM"}
{"molecule": "CCC(C)(O)COc1ncc(C(F)(F)F)cc1-c1ccc(S(C)(=O)=O)cc1 (stereo not drawn)", "endpoint.name": "IC50", "result": "> 0.01 mM"}
{"molecule": "CCC(C)(O)CSc1ncc(C(F)(F)F)cc1-c1ccc(S(C)(=O)=O)cc1 (single isomer, unassigned; (+)) [Example 45]", "endpoint.name": "IC50", "result": "0.003 to 0.01 mM"}

###

Target: COX-1 (Homo sapiens, UniProt P23219)
Assay: Assay of COX-1 activity from U937 cell microsomes (PGE2)
Assay type: biochemical
Parameters: Assay of COX-1 Activity from U937 Cell Microsomes; endogenous in cells; host or cells: U937 cells, 100,000 x g microsomal pellet
Conditions: U-937 cell microsomes, 15 min preincubation; read-out: COX-1 (IC50 mM) U-937
Procedure: U 937 cells are pelleted by centrifugation at 500×g for 5 min and washed once with phosphate-buffered saline and repelleted. […] In the assay, inhibition is determined by measuring the amount of prostaglandin E2 (PGE2) synthesized in the presence of arachidonic acid, cyclooxygenase-1 or cyclooxygenase-2 and a putative inhibitor.
Listing: IC50 of selected compounds
endpoint.name: IC50

{"compound": "C[C@H](CO)Oc1ncc(C(F)(F)F)cc1-c1ccc(S(C)(=O)=O)cc1", "result": "> 0.01 mM"}
{"compound": "CS(=O)(=O)c1ccc(-c2cc(C(F)(F)F)cnc2OCC2(O)CCC2)cc1", "result": "> 0.01 mM"}
{"compound": "CS(=O)(=O)c1ccc(-c2cc(C(F)(F)F)cnc2O[C@@H]2CCC[C@@H]2O)cc1 (relative stereo)", "result": "> 0.01 mM"}
{"compound": "CCC(Oc1ncc(C(F)(F)F)cc1-c1ccc(S(C)(=O)=O)cc1)C(C)(C)O (centres unmarked)", "result": "> 0.01 mM"}
{"compound": "CC(C)(O)COc1ncc(C(F)(F)F)cc1-c1ccc(S(C)(=O)=O)cc1", "result": "> 0.1 mM"}
{"compound": "CS(=O)(=O)c1ccc(-c2cc(C(F)(F)F)cnc2OCC2(O)CCCC2)cc1", "result": "0.01 mM"}
{"compound": "CCC(O)(CC)COc1ncc(Cl)cc1-c1ccc(S(C)(=O)=O)cc1", "result": "> 0.01 mM"}
{"compound": "CCC(O)(CC)[C@@H](C)Oc1ncc(C(F)(F)F)cc1-c1ccc(S(C)(=O)=O)cc1", "result": "> 0.01 mM"}
